- study.system: CYP51 (lanosterol 14-alpha demethylase) (Homo sapiens, UniProt Q16850)
- experiment: Inhibition of recombinant full length human CYP51 expressed in Escherichia coli at inhibitor/enzyme ratio 25/1 incubated for 1 hr using [3H] lanosterol as substrate by HPLC analysis relative to control
- run.conditions: probe [3H] lanosterol
result.type: inhibition at 1 h (%)
Quick reminder: number only, in %, skip the unit.

// query Find the measured inhibition at 1 h of CS(=O)(=O)c1cc(Br)cc(-c2nnc(-c3ccc(C(=O)N[C@@H](Cn4ccnc4)c4ccc(-c5ccc(F)cc5)cc4Cl)cc3)o2)c1 and report it.
// result 82

// query Find the measured inhibition at 1 h of O=C(N[C@@H](Cn1ccnc1)c1ccc(-c2ccc(F)cc2)c2ccccc12)c1ccc(-c2nnc(-c3ccccc3)o2)cc1 and report it.
// result 0

// query Find the measured inhibition at 1 h of O=C(N[C@@H](Cn1ccnc1)c1ccc(-c2ccc(F)cc2)cc1-c1ccccc1)c1ccc(-c2nnc(-c3ccccc3)o2)cc1 and report it.
// result 0

// query Find the measured inhibition at 1 h of O=C(N[C@@H](Cn1ccnc1)c1ccc(-c2ccc(F)cc2)cc1-c1ccco1)c1ccc(-c2nnc(-c3ccccc3)o2)cc1 and report it.
// result 0

====

Record form. Attribute: pIC50. Fill in for each entry.
- study.system: Lanosterol 14-alpha demethylase (Homo sapiens)
- Sequence (Q16850 whole entry): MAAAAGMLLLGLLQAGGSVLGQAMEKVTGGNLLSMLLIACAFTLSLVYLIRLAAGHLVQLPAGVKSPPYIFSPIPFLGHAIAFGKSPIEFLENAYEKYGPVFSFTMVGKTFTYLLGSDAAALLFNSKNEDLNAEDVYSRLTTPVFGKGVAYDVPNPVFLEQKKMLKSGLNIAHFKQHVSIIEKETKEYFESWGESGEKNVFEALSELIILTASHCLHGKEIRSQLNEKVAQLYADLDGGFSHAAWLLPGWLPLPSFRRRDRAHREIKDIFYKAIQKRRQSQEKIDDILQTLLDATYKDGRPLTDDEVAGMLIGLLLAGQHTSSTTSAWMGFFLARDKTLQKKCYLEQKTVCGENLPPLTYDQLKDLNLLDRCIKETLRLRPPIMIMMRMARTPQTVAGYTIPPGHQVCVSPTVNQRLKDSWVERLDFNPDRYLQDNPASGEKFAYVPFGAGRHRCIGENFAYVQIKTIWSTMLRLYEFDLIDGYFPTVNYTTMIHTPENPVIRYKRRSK
- experiment: Inhibition of recombinant full length human CYP51 expressed in Escherichia coli incubated for 1 hr using [3H] lanosterol as substrate by HPLC analysis
Conceptually, pIC50 converts a concentration in mol/L into minus its log10.

// query Find the measured pIC50 of CS(=O)(=O)c1cc(Br)cc(-c2nnc(-c3ccc(C(=O)N[C@@H](Cn4ccnc4)c4ccc(-c5ccc(F)cc5)cc4Cl)cc3)o2)c1 and report it.
// result 5.44

// query Find the measured pIC50 of O=C(N[C@@H](Cn1ccnc1)c1ccc(-c2ccc(F)cc2)cc1Cl)c1ccc(-c2nnc(-c3cc(Br)cc4ccccc34)o2)cc1 and report it.
// result 4.82

// query Find the measured pIC50 of O=C(N[C@@H](Cn1ccnc1)c1ccc(-c2ccc(F)cc2)cc1Cl)c1ccc(-c2nnc(-c3ccccc3)o2)cc1 and report it.
// result 5.23

// query Find the measured pIC50 of CS(=O)(=O)c1cc(-c2ccccn2)cc(-c2nnc(-c3ccc(C(=O)N[C@@H](Cn4ccnc4)c4ccc(-c5ccc(F)cc5)cc4Cl)cc3)o2)c1 and report it.
// result 5.36

// query Find the measured pIC50 of O=C(N[C@@H](Cn1ccnc1)c1ccc(-c2ccc(F)cc2)cc1F)c1ccc(-c2nnc(-c3ccccc3)o2)cc1 and report it.
// result 4.61
